Tested on: Mycolicibacterium fortuitum
experiment-notes: Antibacterial activity against Mycobacterium ranae
Format: functional
Non-standard residues stand in square brackets, D forms with d. Residues, ends and D or L forms follow the SMILES beside them. ξ: configuration not given here. Pro(3ξ,4ξ-(CH2)4) = O=C(O)[C@H]1NCC2CCCCC21
experimental-readout: MIC (µM)
One number for each entry, in µM.

Req: Please look up its MIC: CC(=O)NCC(=O)N[C@@H](Cc1ccccc1)C(=O)N1CC2CCCCC2[C@H]1C(=O)NCC(=O)N[C@@H](CCCCN)C(=O)N1CC2CCCCC2[C@H]1C(=O)NCC(=O)N[C@@H](Cc1ccccc1)C(=O)N1CC2CCCCC2[C@H]1C(=O)NCC(=O)N[C@@H](CCCCN)C(=O)N[C@@H](CCCCN)C(=O)N[C@@H](CCCCN)C(=O)N[C@@H](CCCCN)C(=O)N[C@@H](CCCCN)C(N)=O (stereo partly specified) (Ac-GF[Pro(3ξ,4ξ-(CH2)4)]GK[Pro(3ξ,4ξ-(CH2)4)]GF[Pro(3ξ,4ξ-(CH2)4)]GKKKKK-NH2)
Resp: 100

* * *

System: Mycolicibacterium fortuitum
experiment-notes: Antibacterial activity against Mycobacterium ranae
Type: functional
Non-standard residues stand in square brackets, D forms with d. Residues, ends and D or L forms follow the SMILES beside them. ξ: configuration not given here. Pro(3ξ,4ξ-(CH2)4) = O=C(O)[C@H]1NCC2CCCCC21
experimental-readout: MIC

Req: Please look up its MIC: CC(=O)NCC(=O)N[C@@H](Cc1ccccc1)C(=O)NCC(=O)N1CC2CCCCC2[C@H]1C(=O)NCC(=O)N[C@@H](CCCCN)C(=O)NCC(=O)N1CC2CCCCC2[C@H]1C(=O)NCC(=O)N[C@@H](Cc1ccccc1)C(=O)NCC(=O)N1CC2CCCCC2[C@H]1C(=O)NCC(=O)N[C@@H](CCCCN)C(=O)NCC(=O)N[C@@H](CCCCN)C(=O)N[C@@H](CCCCN)C(=O)N[C@@H](CCCCN)C(=O)N[C@@H](CCCCN)C(N)=O (stereo partly specified) (Ac-GFG[Pro(3ξ,4ξ-(CH2)4)]GKG[Pro(3ξ,4ξ-(CH2)4)]GFG[Pro(3ξ,4ξ-(CH2)4)]GKGKKKK-NH2)
Resp: 100 µM

* * *

System: Mycolicibacterium fortuitum
experiment-notes: Antibacterial activity against Mycobacterium ranae
Type: functional
Non-standard residues stand in square brackets, D forms with d. Residues, ends and D or L forms follow the SMILES beside them. ξ: configuration not given here. Pro(3ξ,4ξ-(CH2)4) = O=C(O)[C@H]1NCC2CCCCC21; Tic = O=C(O)[C@@H]1Cc2ccccc2CN1; ξTic = O=C(O)C1Cc2ccccc2CN1
For each entry below, report its MIC value.
Answers are plain numbers, in µM.

Known results for compounds:
>  <compound>
CC(=O)NCC(=O)N[C@@H](Cc1ccccc1)C(=O)N1Cc2ccccc2C[C@H]1C(=O)NCC(=O)N[C@@H](CCCCN)C(=O)N1Cc2ccccc2C[C@H]1C(=O)NCC(=O)N[C@@H](Cc1ccccc1)C(=O)N1Cc2ccccc2C[C@H]1C(=O)NCC(=O)N[C@@H](CCCCN)C(=O)N1Cc2ccccc2C[C@H]1C(=O)N[C@@H](CCCCN)C(=O)N[C@@H](CCCCN)C(=O)N[C@@H](CCCCN)C(=O)N[C@@H](CCCCN)C(N)=O (Ac-GF[Tic]GK[Tic]GF[Tic]GK[Tic]KKKK-NH2)

>  <result-unit>
µM

>  <MIC>
30

$$$$
>  <compound>
CC(=O)NCC(=O)N[C@@H](Cc1ccccc1)C(=O)N1Cc2ccccc2C[C@H]1C(=O)NCC(=O)NCC(=O)N[C@@H](CCCCN)C(=O)N1Cc2ccccc2C[C@H]1C(=O)NCC(=O)NCC(=O)N[C@@H](Cc1ccccc1)C(=O)N1Cc2ccccc2C[C@H]1C(=O)NCC(=O)NCC(=O)N[C@@H](CCCCN)C(=O)N1Cc2ccccc2C[C@H]1C(=O)N[C@@H](CCCCN)C(=O)N[C@@H](CCCCN)C(=O)N[C@@H](CCCCN)C(=O)N[C@@H](CCCCN)C(N)=O (Ac-GF[Tic]GGK[Tic]GGF[Tic]GGK[Tic]KKKK-NH2)

>  <result-unit>
µM

>  <MIC>
30

$$$$

Now take the following compound into account.
Req: Please look up its MIC: CC(=O)NCC(=O)N1Cc2ccccc2C[C@H]1C(=O)N1CC2CCCCC2[C@H]1C(=O)N[C@@H](CCCCN)C(=O)N1Cc2ccccc2C[C@H]1C(=O)N1CC2CCCCC2[C@H]1C(=O)NCC(=O)N1Cc2ccccc2CC1C(=O)N1CC2CCCCC2[C@H]1C(=O)N[C@@H](CCCCN)C(=O)N1Cc2ccccc2C[C@H]1C(=O)N[C@@H](CCCCN)C(=O)N[C@@H](CCCCN)C(=O)N[C@@H](CCCCN)C(=O)N[C@@H](CCCCN)C(N)=O (stereo partly drawn) (Ac-G[Tic][Pro(3ξ,4ξ-(CH2)4)]K[Tic][Pro(3ξ,4ξ-(CH2)4)]G[ξTic][Pro(3ξ,4ξ-(CH2)4)]K[Tic]KKKK-NH2)
Resp: 3
